tgt: Peroxisome proliferator-activated receptor gamma (Homo sapiens, UniProt P37231)
Sequence (P37231 whole entry): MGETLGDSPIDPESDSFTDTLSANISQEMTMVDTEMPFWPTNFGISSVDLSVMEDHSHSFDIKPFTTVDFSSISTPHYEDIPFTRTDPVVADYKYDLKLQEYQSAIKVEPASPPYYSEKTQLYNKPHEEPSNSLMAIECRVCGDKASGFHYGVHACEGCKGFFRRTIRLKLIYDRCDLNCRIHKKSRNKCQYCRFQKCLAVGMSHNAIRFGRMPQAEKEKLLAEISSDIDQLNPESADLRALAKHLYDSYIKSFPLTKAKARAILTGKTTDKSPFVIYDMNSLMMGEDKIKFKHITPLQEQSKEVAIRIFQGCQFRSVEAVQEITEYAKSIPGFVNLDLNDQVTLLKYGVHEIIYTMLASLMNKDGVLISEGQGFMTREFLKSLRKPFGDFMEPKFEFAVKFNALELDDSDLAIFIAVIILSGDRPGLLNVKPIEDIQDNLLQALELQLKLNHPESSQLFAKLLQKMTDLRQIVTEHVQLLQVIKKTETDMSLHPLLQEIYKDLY
assay.protocol: Competitive binding to human GST-tagged PPAR-gamma by TR-FRET assay
property.name: IC50 (µM)
// note: answer is a bare numeric in µM

The compound identified as CCCCCCCc1oc2cc(O)ccc2c(=O)c1-c1ccc(OC)cc1 registered its IC50 at 5

====

tgt: Peroxisome proliferator-activated receptor gamma (Homo sapiens)
assay.protocol: Binding affinity to PPAR-gamma (unknown origin)
property.name: IC50

INSERT INTO measurements (compound, property_name, endpoint_result) VALUES
  ('COc1ccc(C2COc3cc(O)ccc3C2=O)cc1 (configuration not stated)', 'IC50', '124 µM');

Log: Peroxisome proliferator-activated receptor gamma (Homo sapiens), compound COc1ccc(C(C)C(=O)c2ccc(O)cc2O)cc1 (configuration not stated) , IC50 = 26 µM
